Reference for the values: patent US10981911B2

# systemUnderTest: UniProtKB O60674
Rule: measured IC50 below 3 nM gets met; anything equal to or greater than 3 nM gets not met.

Study these solved cases before continuing.
# compound, labelClass
data = [
    ("N#CC[C@H]1CC[C@H](n2c(CC(=O)NCC3(O)CCC3)nc3cnc4[nH]ccc4c32)CC1", "not met"),
    ("CS(=O)(=O)N1CC(c2nc3cnc4[nH]ccc4c3n2[C@H]2CC[C@H](CC#N)CC2)C1", "not met"),
    ("N#CC[C@H]1CC[C@H](n2c(CC(=O)NC34CC5CC(CC(C5)C3)C4)nc3cnc4[nH]ccc4c32)CC1", "met"),
    ("N#CC[C@H]1CC[C@H](n2c(C3NC(C4CC4)=NO3)nc3cnc4[nH]ccc4c32)CC1 (some centres unmarked)", "not met"),
    ("N#CC[C@H]1CC[C@H](n2c(CC(=O)N3CCC(N4CCOCC4)CC3)nc3cnc4[nH]ccc4c32)CC1", "not met"),
    ("CC(C)/C(=N/O)NCc1nc2cnc3[nH]ccc3c2n1[C@H]1CC[C@H](CC#N)CC1", "not met"),
    ("N#CC[C@H]1CC[C@H](NC(=O)Cc2nc3cnc4[nH]ccc4c3n2[C@H]2CC[C@H](CC#N)CC2)CC1", "met"),
]

Would you kindly look at the next entry?
// query Take the compound N#CC[C@H]1CC[C@H](n2c(CN/C(=N/O)C3CCCCC3)nc3cnc4[nH]ccc4c32)CC1 and say whether its IC50 is less than 3 nM.
// result not met

====

Entries with their measured IC50, system UniProtKB O60674:
Numbers only, in µM.

Some molecules with recorded IC50:
# molecule, systemUnderTest, readoutKind, assayResult
data = [
    ("CCOC(=O)N1CC(c2nc3cnc4[nH]ccc4c3n2[C@H]2CC[C@H](CC#N)CC2)C1 [Ex. 128]", "UniProtKB O60674", "IC50", 0.11),
    ("N#CCC12CCC(n3c(CC(N)=O)nc4cnc5[nH]ccc5c43)(CC1)CC2 [Ex. 206]", "UniProtKB O60674", "IC50", 0.21),
    ("CS(C)(=O)=NCc1nc2cnc3[nH]ccc3c2n1[C@H]1CC[C@H](CC#N)CC1 [Ex. 142]", "UniProtKB O60674", "IC50", 0.01),
]

Hello, I would appreciate it if you could give IC50 for each entry below.
1. N#CC[C@H]1CC[C@H](n2c(CC(=O)Nc3ccc(CO)cc3)nc3cnc4[nH]ccc4c32)CC1 [Ex. 7]
2. N#CC[C@H]1CC[C@H](n2c(CC(=O)NC34CCC(CO)(CC3)C4)nc3cnc4[nH]ccc4c32)CC1 [Ex. 131]
3. N#CC[C@H]1CC[C@H](n2c(-c3ccc(C#N)cc3)nc3cnc4[nH]ccc4c32)CC1 [Ex. 96]
4. N#CC[C@H]1CC[C@H](n2c(CNC(N)=O)nc3cnc4[nH]ccc4c32)CC1 [Ex. 40]
5. CC(C)NC(=O)NCc1nc2cnc3[nH]ccc3c2n1[C@H]1CC[C@H](CC#N)CC1 [Ex. 171]

// result
[0.0006, 0.0056, 0.0338, 0.001, 0.0339]

====

# systemUnderTest: JAK1-JH1JH2 (Homo sapiens (Human), UniProt P23458)
# Sequence (P23458 574-1154): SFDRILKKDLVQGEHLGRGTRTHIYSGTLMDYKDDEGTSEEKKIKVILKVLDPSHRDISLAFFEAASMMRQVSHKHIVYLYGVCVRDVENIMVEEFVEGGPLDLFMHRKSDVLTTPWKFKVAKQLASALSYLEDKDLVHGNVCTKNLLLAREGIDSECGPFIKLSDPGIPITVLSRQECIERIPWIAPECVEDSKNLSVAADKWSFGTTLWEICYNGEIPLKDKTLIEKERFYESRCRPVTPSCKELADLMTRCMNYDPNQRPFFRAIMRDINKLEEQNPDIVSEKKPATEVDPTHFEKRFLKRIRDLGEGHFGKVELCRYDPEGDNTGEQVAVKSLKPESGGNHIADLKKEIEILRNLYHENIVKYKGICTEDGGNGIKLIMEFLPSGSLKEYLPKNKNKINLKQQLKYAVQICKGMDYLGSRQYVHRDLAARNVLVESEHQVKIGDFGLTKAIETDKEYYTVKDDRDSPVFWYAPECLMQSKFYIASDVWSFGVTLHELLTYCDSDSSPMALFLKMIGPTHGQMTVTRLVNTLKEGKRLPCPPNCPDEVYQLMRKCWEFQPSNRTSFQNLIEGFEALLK
# testMethodNotes: Enzymatic inhibition assay (RapidFire HTMS), JAK1
# Format: biochemical
# settings: 12.5 μM ATP, 200 μM substrate; read-out: JAK1-JH2JH1 IC50
pIC50: −log10 of the molar value.
pIC50 vs 9: at or above is Criterion met, below is Criterion not met.

Study these solved cases before continuing.
# compound, systemUnderTest, labelClass
data = [
    ("CC(C)(C#N)CNC(=O)Cc1nc2cnc3[nH]ccc3c2n1[C@H]1CC[C@H](CC#N)CC1 [Ex. 22]", "JAK1-JH1JH2 (Homo sapiens (Human), UniProt P23458)", "Criterion met"),
    ("CC(C)NC(=O)c1nc2cnc3[nH]ccc3c2n1[C@H]1CC[C@H](CC#N)CC1 [Ex. 172]", "JAK1-JH1JH2 (Homo sapiens (Human), UniProt P23458)", "Criterion not met"),
    ("COC1CCN(C(=O)c2nc3cnc4[nH]ccc4c3n2[C@H]2CC[C@H](CC#N)CC2)CC1 [Ex. 176]", "JAK1-JH1JH2 (Homo sapiens (Human), UniProt P23458)", "Criterion not met"),
    ("N#CC[C@H]1CC[C@H](n2c(CN/C(Cc3ccccc3)=N\\O)nc3cnc4[nH]ccc4c32)CC1 [Ex. 103]", "JAK1-JH1JH2 (Homo sapiens (Human), UniProt P23458)", "Criterion met"),
    ("N#CC[C@H]1CC[C@H](n2c(CC(=O)N[C@H]3CC[C@@H](O)CC3)nc3cnc4[nH]ccc4c32)CC1 [Ex. 47]", "JAK1-JH1JH2 (Homo sapiens (Human), UniProt P23458)", "Criterion met"),
]

// query Please check the record COCCOCCOCc1nc2cnc3[nH]ccc3c2n1[C@H]1CC[C@H](CC#N)CC1 [Ex. 194] and state if its pIC50 is at or above 9.
// result Criterion not met

// query Please check the record N#CC[C@H]1CC[C@H](n2c(CC(=O)NCC3(O)COC3)nc3cnc4[nH]ccc4c32)CC1 [Ex. 24] and state if its pIC50 is at or above 9.
// result Criterion met

// query Please check the record CC(C)(C)OCc1nc2cnc3[nH]ccc3c2n1[C@H]1CC[C@H](CC#N)CC1 [Ex. 202] and state if its pIC50 is at or above 9.
// result Criterion not met

// query Please check the record N#CC[C@H]1CC[C@H](n2c(-c3ncc[nH]3)nc3cnc4[nH]ccc4c32)CC1 [Ex. 56] and state if its pIC50 is at or above 9.
// result Criterion met

// query Please check the record N#CC[C@H]1CC[C@H](n2c(CN/C(=N/O)C3CCCCC3)nc3cnc4[nH]ccc4c32)CC1 [Ex. 204] and state if its pIC50 is at or above 9.
// result Criterion not met

====

# systemUnderTest: JAK2-JH1JH2 (Homo sapiens (Human))
# Sequence (O60674 532-1132): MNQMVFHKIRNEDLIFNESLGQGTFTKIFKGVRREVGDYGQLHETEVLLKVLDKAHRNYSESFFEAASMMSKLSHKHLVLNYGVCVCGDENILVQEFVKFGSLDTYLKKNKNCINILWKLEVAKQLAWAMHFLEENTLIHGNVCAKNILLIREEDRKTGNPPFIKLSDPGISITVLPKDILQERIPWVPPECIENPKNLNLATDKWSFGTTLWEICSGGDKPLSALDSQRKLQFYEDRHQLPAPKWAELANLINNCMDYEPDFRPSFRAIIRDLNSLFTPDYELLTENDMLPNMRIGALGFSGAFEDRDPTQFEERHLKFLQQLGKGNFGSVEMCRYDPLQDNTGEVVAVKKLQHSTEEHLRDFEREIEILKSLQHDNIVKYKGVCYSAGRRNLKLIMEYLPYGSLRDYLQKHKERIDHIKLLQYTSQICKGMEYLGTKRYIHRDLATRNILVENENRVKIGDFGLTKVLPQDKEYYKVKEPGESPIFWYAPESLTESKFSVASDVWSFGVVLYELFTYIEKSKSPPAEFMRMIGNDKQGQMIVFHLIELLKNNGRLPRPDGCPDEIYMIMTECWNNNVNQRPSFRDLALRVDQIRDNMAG
# testMethodNotes: Enzymatic inhibition assay (RapidFire HTMS), JAK2
# Type: biochemical
# settings: 30 μM ATP, 40 μM substrate
Rule: measured IC50 below 0.01 µM gets Condition met; anything equal to or greater than 0.01 µM gets Condition not met.

# smilesEntry, labelClass
rows = [
    ("COCCNC(=O)OCc1nc2cnc3[nH]ccc3c2n1[C@H]1CC[C@H](CC#N)CC1", "Condition not met"),
    ("N#CC[C@H]1CC[C@H](n2c(C(=O)N3CCC(C#N)CC3)nc3cnc4[nH]ccc4c32)CC1", "Condition not met"),
]

// query Take the compound CCOP(=O)(Cc1ccc(NC(=O)Cc2nc3cnc4[nH]ccc4c3n2[C@H]2CC[C@H](CC#N)CC2)cc1)OCC and say whether its IC50 is less than 0.01 µM.
// result Condition met

// query Take the compound N#CCC(=O)N1CC(c2nc3cnc4[nH]ccc4c3n2[C@H]2CC[C@H](CC#N)CC2)C1 and say whether its IC50 is less than 0.01 µM.
// result Condition not met

====

# Tested on: P-gp (MDR1)
# testMethodNotes: MDCK-MDR1 permeability assay
# Type: in vitro ADME
# settings: dog, MDCK-MDR1, pH 7.4, MDCK-MDR1, 5 μM; read-out: Papp(B-A)/Papp(A-B) (efflux ratio)
readoutKind: efflux ratio at 60 min, 5 μM

# compound, assayResult
records = [
    ("N#CCCNC(=O)Cc1nc2cnc3[nH]ccc3c2n1[C@H]1CC[C@H](CC#N)CC1 [Ex. 4]", 8.7),
    ("N#CC[C@H]1CC[C@H](n2c(CC(=O)NCC3(O)CC3)nc3cnc4[nH]ccc4c32)CC1 [Ex. 85]", "> 2.2"),
    ("N#CCC12CCC(NC(=O)Cc3nc4cnc5[nH]ccc5c4n3[C@H]3CC[C@H](CC#N)CC3)(CC1)C2 [Ex. 55]", "> 16.9"),
]

// query So what does the record say about efflux ratio at 60 min, 5 μM for CC(C)(O)CNC(=O)Cc1nc2cnc3[nH]ccc3c2n1[C@H]1CC[C@H](CC#N)CC1 [Ex. 1] ?
// result > 1.9

====

I'd be grateful if you could share measured concentration at 4 h for these entries.
# testMethodNotes: In vivo p.o. dosing: plasma and colon tissue concentrations (Protocols 1 and 2)
# Parameters: species or system female C57BL/6 mice
# settings: female, C57BL/6, mouse, plasma, po; mice, 25 mg/kg p.o., Time = 4 h; read-out: Plasma Concentration After p.o. Dosing, Mean
Give bare numbers, in ng/mL.

# compound, assayResult
data = [
    ("N#CC[C@H]1CC[C@H](n2c(CC(=O)NCC3CCOCC3)nc3cnc4[nH]ccc4c32)CC1", 1.7),
]

Hello, I would appreciate it if you could give concentration at 4 h for each entry below.
1. N#CCC1CCC(n2c(-c3c[nH]cn3)nc3cnc4[nH]ccc4c32)CC1 (centres unmarked)
2. N#CC[C@H]1CC[C@H](n2c(CC(=O)NC3CCOCC3)nc3cnc4[nH]ccc4c32)CC1
3. CC(C)(C#N)CNC(=O)Cc1nc2cnc3[nH]ccc3c2n1[C@H]1CC[C@H](CC#N)CC1
4. Cn1cc(NC(=O)Cc2nc3cnc4[nH]ccc4c3n2[C@H]2CC[C@H](CC#N)CC2)cn1
5. N#CC[C@H]1CC[C@H](n2c(CC(=O)NCC3(O)CCC3)nc3cnc4[nH]ccc4c32)CC1
6. N#CCC12CCC(NC(=O)Cc3nc4cnc5[nH]ccc5c4n3[C@H]3CC[C@H](CC#N)CC3)(CC1)C2
7. N#CCCNC(=O)Cc1nc2cnc3[nH]ccc3c2n1[C@H]1CC[C@H](CC#N)CC1
8. N#CC[C@H]1CC[C@H](n2c(CC(=O)NCC3(O)CC3)nc3cnc4[nH]ccc4c32)CC1

// result
1: 1.3; 2: 6; 3: 5; 4: 3.9; 5: 2.6; 6: 3.1; 7: 3.3; 8: 2.3

Hello, I would appreciate it if you could give concentration at 4 h for each entry below.
1. N#CC[C@H]1CC[C@H](n2c(CC(=O)NCC3CC3)nc3cnc4[nH]ccc4c32)CC1
2. CC(C)(O)CNC(=O)Cc1nc2cnc3[nH]ccc3c2n1[C@H]1CC[C@H](CC#N)CC1

// result
1. 1.5
2. 3.3
